B1: PRPH (parent)
chain: RTFGPPPSLSPGAFSYSSSSRFSS

# Variants of: B1
# protocol_text: protein stability index of a GFP-peptide fusion (GPS, HEK-293T) (PSI 1-6); higher = more stable;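 note: lentivirally expressed fusions sorted by FACS into six bins by GFP to DsRed ratio, PSI derived from sequencing read proportions per bin multiplied by bin number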
# test_parameters: c terminus: a fixed tail appended
Rule: true for protein stability index not less than 3, false for anything less.

- mutant_name: "T2Y"
  category: "false"
- mutant_name: "L9Q"
  category: "true"
- mutant_name: "Y16G"
  category: "true"
- mutant_name: "S17C"
  category: "false"
- mutant_name: "Y16V"
  category: "true"
- mutant_name: "Y16E"
  category: "true"
- mutant_name: "S19H"
  category: "false"
- mutant_name: "S23E"
  category: "false"
